Where do the numbers come from? From PubChem BioAssay.

- protocol_summary: drug combination growth inhibition, ovarian cancer – cell-based, oncology-focused library, rucaparib conditional, profiling panel (AID 1508598)
- condition_parameters: patient-derived ovarian cancer cells, CellTiter-Glo viability, 144 h; at 0.0195 µM; OCI-P5x cells; without rucaparib
Active and inactive are the calls of the source.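 How the source made its calls: active means normalized viability below 100% at a tested concentration; inactive means the rest.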
Outcomes: yes (1) (active), no (0) (inactive)

| compound | assigned_class |
| --- | --- |
| CCCS(=O)(=O)Nc1ccc(F)c(C(=O)c2c[nH]c3ncc(-c4ccc(Cl)cc4)cc23)c1F | no (0) |
| C=CC(=O)Nc1cc(Nc2nccc(-c3cn(C)c4ccccc34)n2)c(OC)cc1N(C)CCN(C)C | no (0) |
| COc1ccc2cc(-c3nc(-c4ccc(S(C)=O)cc4)[nH]c3-c3ccncc3)ccc2c1 (stereo not given) | yes (1) |
| COc1cc(Nc2ncc(F)c(Nc3ccc4c(n3)NC(=O)C(C)(C)O4)n2)cc(OC)c1OC | yes (1) |
| CCN(CCO)CCCOc1ccc2c(Nc3cc(CC(=O)Nc4cccc(F)c4)[nH]n3)ncnc2c1 | no (0) |

###

- protocol_summary: growth inhibition, single agents and combos, ICB984, cell-based, cisplatin or BGB combos, synergistic combos for chromothripsis tumors (AID 1671451);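 further: cells exposed for 96 hours before readout; 0% = vehicle DMSO and 100% = killing by high DMSO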
- condition_parameters: ICB984 medulloblastoma cells, drug combinations, BGB IC40 combo, at 0.05 µM, stronger effect = higher value
Quick reference: inhibition of the listed items.

| sample_smiles | u | inhibition |
| --- | --- | --- |
| CN[C@@H]1CN(c2ccc3c(=O)c(C(=O)O)cn(-c4nccs4)c3n2)C[C@H]1OC | % | 100 |
| Nc1nc(OCc2cc(Br)cs2)c2[nH]cnc2n1 | % | -11.8 |
| COc1cc(C=O)c([N+](=O)[O-])cc1OC | % | -39.8 |
| CN(C)c1ccc(C(=O)NCCCCCCC(=O)NO)cc1 | % | 87.6 |
| NC(=O)c1nc(F)c[nH]c1=O | % | 0.125 |
| O=C(/C=C/c1ccc(CN(CCO)CCc2c[nH]c3ccccc23)cc1)NO | % | 100 |
| CNCc1ccc(-c2cc(-c3nc(-c4ccc(S(=O)(=O)C(C)C)cc4)cnc3N)on2)cc1 | % | 102 |
| O=c1[nH]c([C@@H]2CCCN2)nc2c1oc1ccc(Cl)cc12 | % | -16.5 |
| Nc1ccccc1NC(=O)c1ccc(CNc2nccc(-c3cccnc3)n2)cc1 | % | 92.5 |
| N=C1CCCN1Cc1[nH]c(=O)[nH]c(=O)c1Cl | % | -8.96 |
| CN(C)CCN1C(=O)c2cccc3cc(N)cc(c23)C1=O | % | -11.5 |

###

- protocol_summary: viability loss in pontine glioma line – cell-based, SU-DIPG-XIII, MIPE5.0, CellTiter-Glo, qHTS, dose response (AID 1347064);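 on AC50: cells exposed to compound for 48 hours before the viability read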
- condition_parameters: CellTiter-Glo ATP luminescence
Results filed as inconclusive are left out. The source made the active and inactive calls. The limit is not given here; nearly all actives have AC50 up to about 23 µM.
Outcomes: active, inactive

| compound | assigned_class |
| --- | --- |
| CN(C)N(C)C(=O)[C@@]1(Cc2ccccc2)CCCN(C(=O)[C@@H](Cc2c[nH]c3ccccc23)NC(=O)C(C)(C)N)C1 | inactive |
| O=C(O)C1(Cc2cccc(Nc3nccs3)n2)CCC(Oc2cccc(Cl)c2F)CC1 (stereo not drawn) | inactive |
| COc1cc(C(=O)NC2CCN(C)CC2)c(F)cc1Nc1ncc2c(n1)N(C1CCCC1)CC(F)(F)C(=O)N2C | active |
| CO[C@@H]1COCC[C@@H]1N[C@@H]1CC[C@@](C(=O)N2CCc3ncc(C(F)(F)F)cc3C2)(C(C)C)C1 | inactive |
| CC(C)(O)C1CCC(Nc2ccc3ncc(-c4cccc(C(F)(F)F)c4)n3n2)CC1 (stereo not drawn) | active |
| Cc1cc(C)cc(NC(=O)Cc2ccc(OC(C)(C)C(=O)O)cc2)c1 | inactive |
| Cc1cc(CN2CCN(c3c(Br)cnc4nc(-c5ccc(N6CCN(C)CC6)cc5)[nH]c34)CC2)no1 | active |
| C[C@@H]1Cc2c([nH]c3ccccc23)[C@@H](c2c(F)cc(/C=C/C(=O)O)cc2F)N1CC(C)(C)F | inactive |
